methodSummary: Hydrophobic interaction chromatography (HIC) HPLC
Format: physicochemical
assayContext: higher retention = more hydrophobic

| molecule | Retention time by HIC-HPLC [min] |
| --- | --- |
| AB1370083: anti-FRα fully human IgG1 antibody; VH SEQ ID NO: 43, VL SEQ ID NO: 44 (antibody, V domains shown) VH: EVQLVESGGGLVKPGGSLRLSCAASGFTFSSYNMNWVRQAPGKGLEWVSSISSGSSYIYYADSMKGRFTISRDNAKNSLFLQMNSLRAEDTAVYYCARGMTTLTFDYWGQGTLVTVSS VL: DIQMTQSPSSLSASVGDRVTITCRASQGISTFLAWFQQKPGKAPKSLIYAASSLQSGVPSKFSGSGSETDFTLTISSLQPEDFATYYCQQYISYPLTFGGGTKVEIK | 2.27 |
